# system-name: T1, human CD28, full-length, expressed on transfected Expi293 cells (human, UniProt P10747 19-220)
# T1 construct: whole, on cells
# protocol-description: flow cytometry, 100 nM, Expi293 cells with human CD28
property: MFI (MFI)
One number for each entry, in MFI.

Endpoint output: MFI of variant ICOSL IgV-Fc fusion N52L/N57H/Q100R (Fc fusion) DTQEKEVRAMVGSDVELSCACPEGSRFDLNDVYVYWQTSESKTVVTYHIPQLSSLEHVDSRYRNRALMSPAGMLRGDFSLRLFNVTPQDEQKFHCLVLSRSLGFQEVLSVEVTLHVAANFSVGSGGGGSEPKSSDKTHTCPPCPAPEAEGAPSVFLFPPKPKDTLMISRTPEVTCVVVDVSHEDPEVKFNWYVDGVEVHNAKTKPREEQYNSTYRVVSVLTVLHQDWLNGKEYKCKVSNKALPAPIEKTISKAKGQPREPQVYTLPPSREEMTKNQVSLTCLVKGFYPSDIAVEWESNGQPENNYKTTPPVLDSDGSFFLYSKLTVDKSRWQQGNVFSCSVMHEALHNHYTQKSLSLSPG . Value? 141000
